// Muscle uptake lookup, one value per entry
Tested on: FAP-expressing HEK293T:hFAP tumor xenografts
Experiment: Ex vivo biodistribution in HEK293T:hFAP tumor-bearing mice
Settings: 1 h post injection, mean ± SD, n = 4
Method: Biodistribution studies were also conducted at 1 h post injection with [^68Ga]Ga-AV01017, [^68Ga]Ga-AV01030, [^68Ga]Ga-AV01038, [^68Ga]Ga-HTK03041, and [^68Ga]Ga-FAPI-04 in HEK293T:hFAP tumor-bearing mice (Figure 6 and Table S5, Supplementary Materials). Tumor uptake values for [^68Ga]Ga-AV01017, [^68Ga]Ga-AV01030, [^68Ga]Ga-AV01038, [^68Ga]Ga-HTK03041, and [^68Ga]Ga-FAPI-04 were 2.99 ± 0.37, 3.69 ± 0.81, 3.64 ± 0.83, 0.62 ± 0.19, and 12.5 ± 2.00 %ID/g, respectively. […]

- Molecule: "N#C[C@@H]1CC(F)(F)CN1C(=O)CNC(=O)c1ccnc2ccc(-c3cn(CC(=O)N[C@@H](CCCCNC(=O)CN4CCN(CC(=O)[O-])CCN(CC(=O)[O-])CCN(CC(=O)[O-])CC4)C(=O)NCC(=O)NC[C@H]4CC[C@H](C(=O)N[C@@H](Cc5c6ccccc6cc6ccccc56)C(=O)NCCCC[C@H](NC(=O)N[C@@H](CCC(=O)O)C(=O)O)C(=O)O)CC4)nn3)cc12.[68Ga+3] [[^68Ga]Ga-AV01030]"
  Unit annotation: "%ID/g"
  Muscle uptake: 1.78
- Molecule: "O=C([O-])CN1CCN(CC(=O)[O-])CCN(CC(=O)NC[C@H]2CC[C@H](C(=O)N[C@@H](Cc3c4ccccc4cc4ccccc34)C(=O)NCCCC[C@H](NC(=O)N[C@@H](CCC(=O)O)C(=O)O)C(=O)O)CC2)CCN(CC(=O)[O-])CC1.[68Ga+3] [[^68Ga]Ga-HTK03041, reference compound]"
  Unit annotation: "%ID/g"
  Muscle uptake: 0.47
- Molecule: "N#C[C@@H]1CC(F)(F)CN1C(=O)CNC(=O)c1ccnc2ccc(OCc3cn(CC(=O)N[C@@H](CCCCNC(=O)CN4CCN(CC(=O)[O-])CCN(CC(=O)[O-])CCN(CC(=O)[O-])CC4)C(=O)NCC(=O)NC[C@H]4CC[C@H](C(=O)N[C@@H](Cc5c6ccccc6cc6ccccc56)C(=O)NCCCC[C@H](NC(=O)N[C@@H](CCC(=O)O)C(=O)O)C(=O)O)CC4)nn3)cc12.[68Ga+3] [[^68Ga]Ga-AV01038]"
  Unit annotation: "%ID/g"
  Muscle uptake: 1.23
- Molecule: "N#C[C@@H]1CC(F)(F)CN1C(=O)CNC(=O)c1ccnc2ccc(OCCCc3cn(CC(=O)N[C@@H](CCCCNC(=O)CN4CCN(CC(=O)[O-])CCN(CC(=O)[O-])CCN(CC(=O)[O-])CC4)C(=O)NCC(=O)NC[C@H]4CC[C@H](C(=O)N[C@@H](Cc5c6ccccc6cc6ccccc56)C(=O)NCCCC[C@H](NC(=O)N[C@@H](CCC(=O)O)C(=O)O)C(=O)O)CC4)nn3)cc12.[68Ga+3] [[^68Ga]Ga-AV01017]"
  Unit annotation: "%ID/g"
  Muscle uptake: 1.63

---

The following molecules are shown together with reported Large Intestine uptake values.
test system: PSMA-expressing LNCaP tumor xenografts; assay: Ex vivo biodistribution in LNCaP tumor-bearing mice; conditions: LNCaP tumor-bearing mice, 1 h post injection, mean ± SD, n = 4
Readout type: Large Intestine uptake (%ID/g)

- Molecule: "N#C[C@@H]1CC(F)(F)CN1C(=O)CNC(=O)c1ccnc2ccc(OCCCN3CCN(C(=O)CN4CCN(CC(=O)[O-])CCN(CC(=O)[O-])CCN(CC(=O)[O-])CC4)CC3)cc12.[68Ga+3] [[^68Ga]Ga-FAPI-04, reference compound]"
  Readout number: 0.73
- Molecule: "N#C[C@@H]1CC(F)(F)CN1C(=O)CNC(=O)c1ccnc2ccc(OCc3cn(CC(=O)N[C@@H](CCCCNC(=O)CN4CCN(CC(=O)[O-])CCN(CC(=O)[O-])CCN(CC(=O)[O-])CC4)C(=O)NCC(=O)NC[C@H]4CC[C@H](C(=O)N[C@@H](Cc5c6ccccc6cc6ccccc56)C(=O)NCCCC[C@H](NC(=O)N[C@@H](CCC(=O)O)C(=O)O)C(=O)O)CC4)nn3)cc12.[68Ga+3] [[^68Ga]Ga-AV01038]"
  Readout number: 1.65
- Molecule: "N#C[C@@H]1CC(F)(F)CN1C(=O)CNC(=O)c1ccnc2ccc(OCCCc3cn(CC(=O)N[C@@H](CCCCNC(=O)CN4CCN(CC(=O)[O-])CCN(CC(=O)[O-])CCN(CC(=O)[O-])CC4)C(=O)NCC(=O)NC[C@H]4CC[C@H](C(=O)N[C@@H](Cc5c6ccccc6cc6ccccc56)C(=O)NCCCC[C@H](NC(=O)N[C@@H](CCC(=O)O)C(=O)O)C(=O)O)CC4)nn3)cc12.[68Ga+3] [[^68Ga]Ga-AV01017]"
  Readout number: 1.76
- Molecule: "N#C[C@@H]1CC(F)(F)CN1C(=O)CNC(=O)c1ccnc2ccc(-c3cn(CC(=O)N[C@@H](CCCCNC(=O)CN4CCN(CC(=O)[O-])CCN(CC(=O)[O-])CCN(CC(=O)[O-])CC4)C(=O)NCC(=O)NC[C@H]4CC[C@H](C(=O)N[C@@H](Cc5c6ccccc6cc6ccccc56)C(=O)NCCCC[C@H](NC(=O)N[C@@H](CCC(=O)O)C(=O)O)C(=O)O)CC4)nn3)cc12.[68Ga+3] [[^68Ga]Ga-AV01030]"
  Readout number: 1.32
